Biological target: Corticotropin-releasing factor receptor 1 (Rattus norvegicus, UniProt P35353)
Sequence (P35353 whole entry): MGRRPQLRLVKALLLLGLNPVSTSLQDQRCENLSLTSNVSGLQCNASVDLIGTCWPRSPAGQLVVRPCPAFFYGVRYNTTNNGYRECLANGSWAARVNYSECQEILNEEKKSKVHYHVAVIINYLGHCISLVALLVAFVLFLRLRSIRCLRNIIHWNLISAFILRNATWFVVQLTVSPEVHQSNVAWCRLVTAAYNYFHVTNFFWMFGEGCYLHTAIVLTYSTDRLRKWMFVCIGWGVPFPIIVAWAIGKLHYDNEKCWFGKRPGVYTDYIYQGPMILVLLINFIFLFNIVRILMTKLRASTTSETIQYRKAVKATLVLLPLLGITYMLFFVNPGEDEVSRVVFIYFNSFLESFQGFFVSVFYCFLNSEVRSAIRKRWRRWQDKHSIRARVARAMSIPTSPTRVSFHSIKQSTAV
Assay: Antagonist activity at rat CRF1 receptor expressed in CHO-K1 cells assessed as inhibition of CRF-induced cAMP accumulation after 15 mins by cAMP enzyme immunoassay

>  <mol_smiles>
CCCN(CCC)c1c(C)c(Nc2ccc(OC)cc2Cl)nc2ccnn12

>  <value_unit>
nM

>  <EC50>
81

$$$$

----------
Target: UniProt:P34998
Assay: Antagonist activity at human CRF1 receptor expressed in CHO-K1 cells assessed as inhibition of CRF-induced cAMP accumulation after 15 mins by cAMP enzyme immunoassay
pEC50: −log10 of the molar value.
pEC50 values by entry
observation_type: pEC50

>  <mol_smiles>
CCc1cc(OC)ccc1Nc1nc2ccnn2c2c1ccn2C(CC)CC

>  <test_value>
8.46

$$$$
>  <mol_smiles>
CCCN(CCC)c1c(C(C)C)c(Nc2ccc(OC)cc2Cl)nc2ccnn12

>  <test_value>
6.63

$$$$
>  <mol_smiles>
CCCN(CCC)c1c(C)c(Nc2ccc(OC)cc2Cl)nc2ncnn12

>  <test_value>
8.05

$$$$
>  <mol_smiles>
CCC(CC)Nc1c(C)c(Nc2ccc(OC)cc2Cl)nc2ncnn12

>  <test_value>
7.24

$$$$

----------
Molecular target: Corticotropin-releasing factor receptor 1 (Homo sapiens)
Sequence (P34998 whole entry): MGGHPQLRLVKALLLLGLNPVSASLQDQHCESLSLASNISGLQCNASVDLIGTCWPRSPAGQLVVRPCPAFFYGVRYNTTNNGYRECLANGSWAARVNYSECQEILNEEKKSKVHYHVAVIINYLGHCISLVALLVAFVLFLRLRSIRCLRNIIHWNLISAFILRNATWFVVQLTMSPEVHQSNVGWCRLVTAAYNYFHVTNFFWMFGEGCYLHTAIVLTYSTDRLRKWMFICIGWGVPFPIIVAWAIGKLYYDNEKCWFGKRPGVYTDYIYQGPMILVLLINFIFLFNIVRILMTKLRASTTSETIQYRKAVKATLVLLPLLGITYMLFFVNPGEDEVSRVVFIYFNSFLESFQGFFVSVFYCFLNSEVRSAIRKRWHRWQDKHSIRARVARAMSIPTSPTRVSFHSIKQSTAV
Test: Antagonist activity at human CRF1 receptor expressed in CHO-K1 cells assessed as inhibition of CRF-induced cAMP accumulation after 15 mins by cAMP enzyme immunoassay
pEC50: −log10 of the molar value.
Values of pEC50 greater than or equal to 8 map to Met; values below map to Not met.

>  <mol_smiles>
CCCN(CCC)c1nc(N(C)c2ccc(OC)cc2Cl)nc2ccnn12

>  <group_label>
Not met

$$$$
>  <mol_smiles>
CCCN(CCC)c1cc(N(C)c2ccc(OC)cc2Cl)nc2ccnn12

>  <group_label>
Not met

$$$$
>  <mol_smiles>
CCc1ccc(Oc2nc3ccnn3c3c2ccn3C(CC)CC)c(OC)c1

>  <group_label>
Met

$$$$
>  <mol_smiles>
CCCN(CCC)c1cc(N(CCC)c2ccc(OC)cc2Cl)nc2ccnn12

>  <group_label>
Not met

$$$$
>  <mol_smiles>
CCCN(CCC)c1cc(N(C)c2ccc(OC)cc2Cl)nc2ncnn12

>  <group_label>
Not met

$$$$
>  <mol_smiles>
CCC(CC)n1ccc2c(Nc3ccc(OC)cc3Cl)nc3ccnn3c21

>  <group_label>
Met

$$$$
>  <mol_smiles>
CCCN(CCC)c1c(OC)c(Nc2ccc(OC)cc2Cl)nc2ccnn12

>  <group_label>
Not met

$$$$
>  <mol_smiles>
CCCN(CCC)c1cc(N(CC)c2ccc(OC)cc2Cl)nc2ccnn12

>  <group_label>
Not met

$$$$
>  <mol_smiles>
CCC(CC)n1ccc2c(Nc3c(C)cc(C)cc3C)nc3ccnn3c21

>  <group_label>
Met

$$$$
>  <mol_smiles>
CCc1cc(Cl)ccc1Nc1nc2ccnn2c2c1ccn2C(CC)CC

>  <group_label>
Met

$$$$
>  <mol_smiles>
CCCN(CCC)c1cc(N(CC)c2ccc(OC)cc2Cl)nc2nccn12

>  <group_label>
Not met

$$$$
>  <mol_smiles>
CCCN(CCC)c1c(C)c(Nc2ccc(OC)cc2Cl)nc2ccnn12

>  <group_label>
Met

$$$$
>  <mol_smiles>
CCCN(CCC)c1cc(Nc2ccc(OC)cc2Cl)nc2ccnn12

>  <group_label>
Not met

$$$$
>  <mol_smiles>
CCC(CC)Nc1cc(Nc2ccc(OC)cc2Cl)nc2ccnn12

>  <group_label>
Not met

$$$$
>  <mol_smiles>
C=C(C)CN(c1cc(N(CCC)CCC)n2nccc2n1)c1ccc(OC)cc1Cl

>  <group_label>
Not met

$$$$
>  <mol_smiles>
CCCN(CCC)c1cc(N(COC)c2ccc(OC)cc2Cl)nc2ccnn12

>  <group_label>
Met

$$$$
>  <mol_smiles>
CCCc1c(Nc2ccc(OC)cc2Cl)nc2ccnn2c1N(CCC)CCC

>  <group_label>
Not met

$$$$
>  <mol_smiles>
CCC(CC)n1ccc2c(Cc3c(C)cc(C)cc3C)nc3ccnn3c21

>  <group_label>
Not met

$$$$
>  <mol_smiles>
CCCN(CCC)c1c(C)c(Nc2ccc(OC)cc2Cl)nc2nccn12

>  <group_label>
Not met

$$$$
>  <mol_smiles>
CCC(CC)Nc1cc(N(C)c2ccc(OC)cc2Cl)nc2ncnn12

>  <group_label>
Not met

$$$$
>  <mol_smiles>
C=CCN(c1cc(N(CCC)CCC)n2nccc2n1)c1ccc(OC)cc1Cl

>  <group_label>
Not met

$$$$

Recorded values, source ChEMBL document CHEMBL1828587.
